From: patent US4001409A

Test: Blood levels in mice after intramuscular administration
Details: mouse, im, 10 mg/kg
outcome measure: concentration at 1.5 h (ng/mL)
Provide the reading as a plain figure in ng/mL.

Looking for the measured concentration at 1.5 h of N[C@@H](C(=O)NC1C(=O)N2C(C(=O)O)=C(CSc3cnn[nH]3)CSC12)c1ccc(O)cc1 (stereo partly shown) [Cephalosporin 1,2-propylene glycolate] , can you help?
9000

---

Assay: Blood levels in mice after intramuscular administration
Details: mouse, im, 10 mg/kg
outcome measure: concentration at 1 h (ng/mL)
Provide the reading as a plain figure in ng/mL.

Looking for the measured concentration at 1 h of N[C@@H](C(=O)NC1C(=O)N2C(C(=O)O)=C(CSc3cnn[nH]3)CSC12)c1ccc(O)cc1 (stereo partly shown) [Cephalosporin 1,2-propylene glycolate] , can you help?
12300

---

Assay: Blood levels in mice after oral administration
Settings: mouse, 100 mg/kg
outcome measure: concentration at 9.5 h (ng/mL)
Provide the reading as a plain figure in ng/mL.

Looking for the measured concentration at 9.5 h of N[C@@H](C(=O)NC1C(=O)N2C(C(=O)O)=C(CSc3cnn[nH]3)CSC12)c1ccc(O)cc1 (stereo partly shown) [Cephalosporin 1,2-propylene glycolate] , can you help?
45800

---

Assay: physchem
Conditions: water
outcome measure: solubility

Looking for the measured solubility of CC(=O)CCC(=O)[O-].[Na+] [sodium levulinate] , can you help?
> 300 mg/mL

---

Assay: Blood levels in mice after oral administration
Conditions: mouse, 100 mg/kg
outcome measure: concentration at 3.5 h (ng/mL)
Provide the reading as a plain figure in ng/mL.

Looking for the measured concentration at 3.5 h of N[C@@H](C(=O)NC1C(=O)N2C(C(=O)O)=C(CSc3cnn[nH]3)CSC12)c1ccc(O)cc1 (stereo partly shown) [Cephalosporin 1,2-propylene glycolate] , can you help?
9700

---

Test: Blood levels in mice after oral administration
Conditions: mouse, 100 mg/kg
outcome measure: concentration at 2 h (ng/mL)
Provide the reading as a plain figure in ng/mL.

Looking for the measured concentration at 2 h of N[C@@H](C(=O)NC1C(=O)N2C(C(=O)O)=C(CSc3cnn[nH]3)CSC12)c1ccc(O)cc1 (stereo partly shown) [Cephalosporin 1,2-propylene glycolate] , can you help?
26600
